From: ChEMBL document CHEMBL1201862

- Tested on: HL-60
- protocol_details: NCI tumour cell line growth inhibition, 48 h
Active and inactive are the calls of the source. No stated cut-off is given here; in the data, active = GI50 up to about 1.1 µM and inactive = higher.
endpoint_label: GI50

The examples below pair each entry with its known result.
CC(=O)c1cccc(N2COC(C)(C)c3nc4ccccc4n3C2)c1	> 100 µM (inactive)
SCc1ccc(CS)s1	> 100 µM (inactive)
Cn1c(N)c(/N=N/c2ccc(S(N)(=O)=O)cc2)c(=O)n(C)c1=O	> 100 µM (inactive)
Cc1nc(Nc2ccccc2)sc1C(=O)NNc1ccc([N+](=O)[O-])cc1[N+](=O)[O-]	13.9 µM (inactive)
COC(=O)Cc1c([C@H]2[C@H](CC(=O)OC)c3ccccc3N2C(C)=O)[nH]c2ccccc12	85.3 µM (inactive)

Would you kindly share the measured GI50 for O=C(c1ccccc1)c1ccc2n[se]nc2c1 ? 3.56 µM (inactive)

Follow-up item: CCN(CC)Cc1cc(Nc2c3ccccc3nc3c4ccccc4n(C)c23)cc(CN(CC)CC)c1O 2.31 µM (inactive)

Please give the result for CN1CCN(Cc2cc3c(nn2)-c2ccccc2C3=O)CC1 too. 21 µM (inactive)

Similarly, COC(=O)c1cc2ccc(O)c(O)c2cn1 ? 3.36 µM (inactive)

Please do the same for CC1(C)N=C(N)N=C(N)N1c1ccc(CCCCCCc2ccc(S(=O)(=O)F)cc2)cc1 as well. 0.132 µM (active)

CCN(CCCl)c1cc(CN(C)C)cc(NC(=O)c2ccc(C(=O)Nc3ccccc3)cc2)c1 , same question. 0.193 µM (active)

What about this compound? OCC1OC(n2cnc3c(SCc4ccccc4)ncnc32)C(O)C1O (stereo not given) 1.21 µM (inactive)

Follow-up item: Cc1ccc2c3ccc4c(c3n(C)c2c1)C(=O)C=CC4=O 1.04 µM (active)

Lookup COc1cc(/C=C2/Oc3c(OC)cccc3C2=O)ccc1O 36.6 µM (inactive)

Proceed to COc1c(C)c2c(c(C)c1Cl)Oc1c(C=O)c(O)c(Cl)c(C)c1C(=O)O2 22.3 µM (inactive)

# iterate: CCOC(=O)C1S/C(=N\c2ccc(OC)c(OC)c2)N=C1C (stereo not given) 19.2 µM (inactive)

* * *

- System: SK-MEL-28
- protocol_details: NCI tumour cell line growth inhibition, 48 h
Calls of active or inactive are those of the source. Rule as the data show it: active = GI50 up to about 1.1 µM and inactive = higher.
endpoint_label: GI50

Some solved cases for reference:
O=S(=O)(NC(c1ccccc1)(c1cc2ccccc2[nH]1)c1cc2ccccc2n1S(=O)(=O)c1ccccc1)c1ccccc1 (centres undefined)	> 100 µM (inactive)
CN(C)c1ccc(-c2nc(N)nc3c2CCCC3)cc1	61.8 µM (inactive)

Tell me the measured GI50 of CCCCN(CCCC)CC(C(C)=O)C(c1ccccc1)c1c(O)c2ccccc2oc1=O (centres undefined) , please. > 100 µM (inactive)

Please answer likewise for CCCSC1=N/C(=C\c2ccco2)C(=O)N1 > 100 µM (inactive)

* * *

- Tested on: HCT-116
- protocol_details: NCI tumour cell line growth inhibition, 48 h
Active and inactive are the calls of the source. Cut-off read from the data, not from the text of the source: active = GI50 up to about 1.1 µM and inactive = higher.
Form entry, call: pick from active, inactive

# example entries with known answers
CCCc1c(C(=O)OCC)[nH]c(C(=O)CCC(=O)c2[nH]c(C(=O)OCC)c(CCC)c2C(=O)OCC)c1C(=O)OCC	inactive
CCOC(=O)c1c(NC(=O)c2cccs2)sc2c1CCCC2	inactive
CCCC(=O)OC1C(C(O)CO)OC2OC(C)(C)OC21 (configuration not stated)	inactive
CN1CCN(c2ccc3nc(C4=C(O)C(=O)c5c(nc(CO)n5C)C4=O)[nH]c3n2)CC1	inactive
C[N+](C)(C)CC(=O)N/N=C/c1oc(-c2cccc([N+](=O)[O-])c2)c(-c2cccc([N+](=O)[O-])c2)c1[N+](=O)[O-]	inactive
COc1cccc(NC(=O)C(=O)C(C(C)=O)c2nc3ccc(Cl)cc3nc2O)c1 (configuration not stated)	inactive

Hey, what did the test say about O=C1CCc2cc3c(cc21)C(C(=O)O)CC3 (configuration not stated) ? inactive

Now give it for CC1=Nc2ccccc2OC(C)=C1/N=N/c1ccc2[nH]c(C)nc2c1 too. inactive

Check COc1ccc(C#Cn2nnc3ccccc32)cc1 too. inactive

Cc1cc2c(cc1C)[n+]([O-])c(C(=O)C/C(=N/NC(=O)CC#N)C(=O)Nc1ccccc1C(F)(F)F)c(C)[n+]2[O-] ? inactive

What would you report for O=C(OCc1ccc([N+](=O)[O-])cc1)N1c2ccccc2[C@@]23O[C@]24CCC[C@H]3C#C/C=C\C#C[C@H]14 ? inactive

How about Cc1ccc(S(=O)(=O)SCc2ccccc2CSS(=O)(=O)c2ccc(C)cc2)cc1 ? inactive

Now the compound O=C1C=CC(=O)c2c1c1c(c3c2C2c4ccccc4C3c3ccccc32)C2c3ccccc3C1c1ccccc12 inactive

* * *

- System: SN12C
- protocol_details: NCI tumour cell line growth inhibition, 48 h
Calls of active or inactive are those of the source. No stated cut-off is given here; in the data, active = GI50 up to about 1.1 µM and inactive = higher.
Below, each entry is listed alongside its reported GI50.

CCOC(=O)CN1C(=O)c2ccc(NC(=O)C(=O)O)cc2S1(=O)=O	> 100 µM (inactive)
COc1ccccc1C1(C)SCc2nc3ccccc3n21 (stereo not given)	> 10 µM (inactive)

# get_value(readout='GI50', item= CCCCCCc1cc2cc(-c3cn4ccccc4n3)c(=O)oc2cc1O ) 5.35 µM (inactive)

Same again, this time with CSc1s[s+]c(SC)c1[O-] 22.1 µM (inactive)

Also, CSC12c3cc(C)n(-c4ccc([N+](=O)[O-])cc4)c3CC(C)(C)CN1C(=O)C2Oc1ccccc1 (stereo not given) please. > 100 µM (inactive)

* * *

- System: SN12C
- protocol_details: NCI tumour cell line growth inhibition, 48 h
The source made the active and inactive calls. Cut-off read from the data, not from the text of the source: active = GI50 up to about 1.1 µM and inactive = higher.
endpoint_label: GI50

CC(=O)NC1CCC(NC(=O)OC(C)(C)C)C(NC(=O)OC(C)(C)C)C1 (centres undefined)	> 100 µM (inactive)
CCCC(=O)OC1C(C(O)CO)OC2OC(C)(C)OC21 (centres undefined)	> 100 µM (inactive)

Data request, read-out GI50, for CCOC(=O)c1nc2ccccc2nc1Oc1cc(OC)cc(OC)c1 > 100 µM (inactive)

Then this compound: O=C(CCc1cc(O)cc(O)c1)NCCCNC(=O)CCc1cc(O)cc(O)c1 > 100 µM (inactive)

* * *

- Tested on: MDA-MB-231
- protocol_details: NCI tumour cell line growth inhibition, 48 h
The source made the active and inactive calls. No stated cut-off is given here; in the data, active = GI50 up to about 1.1 µM and inactive = higher.
endpoint_label: GI50

These recorded examples may help you get a feel for the data.
O=C(c1ccc(Cl)c(Cl)c1)N(C(=O)N1CCN(c2ccccc2)CC1)S(=O)(=O)c1ccccc1	35.6 µM (inactive)
C[C@]12CC[C@@H]3c4ccc(OCCN5CCCC5)cc4CC[C@H]3[C@@H]1CCC2=O	24.5 µM (inactive)

Write down the reported GI50 of COc1cc(/C=C2/Oc3c(OC)cccc3C2=O)ccc1O , test system: MDA-MB-231. > 100 µM (inactive)

* * *

- System: MOLT-4
- protocol_details: NCI tumour cell line growth inhibition, 48 h
The source made the active and inactive calls. No stated cut-off is given here; in the data, active = GI50 up to about 1.1 µM and inactive = higher.
Could you please pick one outcome from this set? active, inactive

N#C/C(=C(\O)C(=O)O)c1ccc(-c2cccc3ccccc23)cc1	inactive

Given CC(=O)Nc1cc2c(s1)CCC1CC(=O)NN=C21 (configuration not stated) , state the outcome it received in this test. inactive

Entry c1ccc2c(c1)ccn1ccc3c4ccccc4nc-3c21 please active

* * *

- Test system: HCC 2998
- protocol_details: NCI tumour cell line growth inhibition, 48 h
Activity calls are given as the source filed them. No stated cut-off is given here; in the data, active = GI50 up to about 1.1 µM and inactive = higher.
Entries and their GI50

COC(=O)Cc1cc(OC)c(OC)cc1Br	> 100 µM (inactive)
CCCCCCNC(=O)c1cc(NCc2cc(OC)ccc2OC)ccc1O	26.6 µM (inactive)
O=C1NC(=O)C(F)(n2cc(F)c(=O)[nH]c2=O)C(O)N1 (stereo not drawn)	> 10 µM (inactive)
CC(=O)Nc1ccc(-c2nnc(SCC(=O)Nc3ccccc3Cl)o2)cc1	> 100 µM (inactive)
COc1cc(/C=C(\C#N)C(=O)c2ccccc2)ccc1OCc1ccccc1	> 100 µM (inactive)

Hi! What's the reported GI50 for O=C(Nn1cnn2c(=O)c3ccccc3nc2c1=O)c1ccccc1 on HCC 2998? > 100 µM (inactive)

Entry to check: O=C(c1ccccc1)c1ccc2n[se]nc2c1 8.93 µM (inactive)

Same for C[C@@H]1C[C@H]2OC(=O)[C@@]3(C)CCC[C@@](C)([C@@H]23)[C@@]1(O)CCc1ccoc1 > 100 µM (inactive)

* * *

# GI50 values compiled below
- System: SK-MEL-28
- protocol_details: NCI tumour cell line growth inhibition, 48 h
Calls of active or inactive are those of the source. Cut-off read from the data, not from the text of the source: active = GI50 up to about 1.1 µM and inactive = higher.

Example entries and their recorded answers appear below.
C=C[C@]1(C)CC(=O)C(C(C)C=O)[C@]12C(=O)Oc1cccc(C)c1C2=O (stereo partly drawn)	15.2 µM (inactive)
CC(C)(C)N1CC2(CCCCC2)C1=O	> 100 µM (inactive)
O=C1C(Cl)=C(NCCO)C(=O)c2c(O)ccc(O)c21	1.92 µM (inactive)
CC(=O)OC/C=C/Cn1ncc(=O)[nH]c1=O	> 100 µM (inactive)
CC(C)(C)c1cc(CCC(=O)Nc2ccc(Cl)cc2)nc(NC#N)n1	> 100 µM (inactive)

Tell me the measured GI50 of C[C@@H]1C[C@H]2OC(=O)[C@@]3(C)CCC[C@@](C)([C@@H]23)[C@@]1(O)CCc1ccoc1 , please. > 100 µM (inactive)

Same read-out for N#CC(C#N)C(c1ccccc1)c1ccccc1 ? > 100 µM (inactive)

Param item: CCOC(=O)c1ccc(NCC#CCN2CCOCC2)cc1 > 100 µM (inactive)

Same again, this time with C(/Cc1ccc2c(c1)OCO2)=N\N=C1NCCN1 > 100 µM (inactive)
